Here the recorded DC50 is given for each entry.
target_of_assay: IRAK4 (Homo sapiens)
Construct: endogenous in cells; host or cells: OCI-LY10
Sequence (Q9NWZ3 1-460): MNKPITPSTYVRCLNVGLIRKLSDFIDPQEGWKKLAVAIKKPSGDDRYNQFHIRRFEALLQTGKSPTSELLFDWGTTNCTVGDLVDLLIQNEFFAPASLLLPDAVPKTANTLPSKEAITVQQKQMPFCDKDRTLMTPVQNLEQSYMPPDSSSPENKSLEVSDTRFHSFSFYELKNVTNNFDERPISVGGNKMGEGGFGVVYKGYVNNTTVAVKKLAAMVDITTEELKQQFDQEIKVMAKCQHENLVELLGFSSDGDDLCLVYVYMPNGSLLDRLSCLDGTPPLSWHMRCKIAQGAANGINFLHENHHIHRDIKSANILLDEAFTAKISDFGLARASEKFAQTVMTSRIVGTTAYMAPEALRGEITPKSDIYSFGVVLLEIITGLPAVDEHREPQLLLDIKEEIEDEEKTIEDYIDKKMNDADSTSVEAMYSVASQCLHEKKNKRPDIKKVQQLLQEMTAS
procedure_details: IRAK4 MSD degradation in OCI-LY10
Format: cell-based
condition_parameters: OCI-LY10 cells, 24 hrs, Meso Scale Discovery
endpoint_label: DC50

[[record]]
compound = "CC(C)(O)c1cc2nc([C@H]3CC[C@H](CN4CC5(CC(C(CNc6cccc7c6C(=O)N(C6CCC(=O)NC6=O)C7=O)CN6CCC(c7ccc(Nc8nc(N9CCCCC9)cnc8C(N)=O)cc7)CC6)C5)C4)CC3)sc2cc1NC(=O)c1cccc(C(F)(F)F)n1 (some centres unmarked) [Compound I-7]"
result = "1 to 10 µM"

[[record]]
compound = "NC(=O)c1ncc(N2CCCCC2)nc1Nc1ccc(C2CCN(CC(CNc3cccc4c3C(=O)N(C3CCC(=O)NC3=O)C4=O)C3CC4(C3)CN(C[C@H]3CC[C@H](n5cc(NC(=O)c6cnn7ccc(N8CCOCC8)nc67)c(C(F)F)n5)CC3)C4)CC2)cc1 (some centres unmarked) [Compound I-9]"
result = "< 1 µM"

